Give measured Papp at 18 hours, 50 µM for each item. Keep answers brief.
MEASUREMENT_PROTOCOL: PAMPA (parallel artificial membrane permeability assay)
Assay type: in vitro ADME
TEST_CONTEXT: PAMPA, pH 6.5
Starred links: 1 amine or outer side, 2 acyl side, 3 side chain; linkers in the order of their positions; H or OH if unused. Positions of bridges follow the written chain, without caps; N, C: chain ends. Non-standard residues stand in square brackets, D forms with d. Residues, ends and D or L forms follow the SMILES beside them. *: point of attachment. NMeF = CN[C@@H](Cc1ccccc1)C(=O)O; NMeI = CC[C@H](C)[C@H](NC)C(=O)O; NMeβAla = CN(CCC(=O)[*:2])[*:1]; NMeL = CN[C@@H](CC(C)C)C(=O)O; NMeV = CN[C@H](C(=O)O)C(C)C; NMeA = CN[C@@H](C)C(=O)O; Piperidide = C1CCN(*)CC1; dNMeA = CN[C@H](C)C(=O)O; β3hA = C[C@H](N)CC(=O)O; Sar = CNCC(=O)O; tBu = CC(C)(C)*

Recorded Papp at 18 hours, 50 µM of CC(C)C[C@H]1C(=O)N[C@@H](C)C(=O)N(C)[C@@H](C)C(=O)N[C@@H](C)CC(=O)N(C)[C@@H](C)C(=O)N[C@@H]([C@@H](C)O)C(=O)N(C)CC(=O)N(C)[C@@H](Cc2ccccc2)C(=O)N(C)[C@@H](Cc2ccccc2)C(=O)N(C)[C@@H](C)C(=O)N2CCC[C@H]2C(=O)N1C [DP-765] (cyclo(A[NMeA][β3hA][NMeA]T[Sar][NMeF][NMeF][NMeA]P[NMeL])) , please. 3 ×10⁻⁶ cm/s

Can you check CC[C@H](C)[C@H]1C(=O)N[C@@H]([C@@H](C)O)C(=O)N(C)CC(=O)N(C)[C@@H](CC(C)C)C(=O)N[C@H](C(=O)N2CCCCC2)CC(=O)N(C)[C@H](C)C(=O)N[C@@H](CC(C)C)C(=O)N(C)[C@@H](CC(C)C)C(=O)N(C)[C@@H](Cc2ccccc2)C(=O)N[C@@H](C)C(=O)N(C)[C@@H](Cc2ccccc2)C(=O)N1C [DP-105] ([dNMeA]L[NMeL][NMeF]A[NMeF][NMeI]T[Sar][NMeL]D-Piperidide; lactam N-11) next? 45 ×10⁻⁶ cm/s

How about CC[C@H](C)[C@H]1C(=O)N(C)[C@@H](C)C(=O)N[C@@H](Cc2ccccc2)C(=O)N[C@@H]([C@@H](C)O)C(=O)N[C@@H](CC(C)C)C(=O)N(C)[C@@H](Cc2ccccc2)C(=O)N(C)[C@@H](C(C)C)C(=O)N[C@H](C(=O)N2CCCCC2)CC(=O)N[C@@H](C)C(=O)N[C@@H](CC(C)C)C(=O)N1C [DP-18] (AL[NMeI][NMeA]FTL[NMeF][NMeV]D-Piperidide; lactam N-10) ? 30 ×10⁻⁶ cm/s

Also CC(C)C[C@@H]1NC(=O)[C@H](C)N(C)C(=O)CNC(=O)[C@H](C(C)C)N(C)C(=O)[C@H](Cc2ccccc2)NC(=O)[C@H]([C@@H](C)O)NC(=O)[C@H](CC(C)C)N(C)C(=O)CN(C)C(=O)C[C@@H](C(=O)N(C)[C@@H](Cc2ccccc2)C(=O)N[C@@H](C)C(=O)N2CCCCC2)NC(=O)[C@H](C)N(C)C(=O)[C@H](CC(C)C)N(C)C1=O [DP-285] ([Sar][NMeL]TF[NMeV]G[NMeA]L[NMeL][NMeA]D[NMeF]A-Piperidide; lactam N-11) ? 16 ×10⁻⁶ cm/s

Subsequent entry: CC(C)C[C@H]1C(=O)N(C)[C@@H](C(C)C)C(=O)N[C@@H](Cc2ccccc2)C(=O)N[C@H](C(=O)N(C)[C@@H](Cc2ccccc2)C(=O)N[C@@H](C)C(=O)N2CCCCC2)CC(=O)N[C@H](C)C(=O)N[C@@H](C(C)C)C(=O)N(C)[C@@H](CC(C)C)C(=O)N[C@@H]([C@@H](C)O)C(=O)N(C)[C@@H](Cc2ccccc2)C(=O)NCC(=O)N1C [DP-291] ([dA]V[NMeL]T[NMeF]G[NMeL][NMeV]FD[NMeF]A-Piperidide; lactam N-10) 14 ×10⁻⁶ cm/s

Moving on to CC(C)C[C@@H]1NC(=O)[C@H](CCC(=O)O)NC(=O)[C@@H]2CCCN2C(=O)[C@H](CC(C)C)NC(=O)[C@H](CC(C)C)N(C)C(=O)[C@H](Cc2ccccc2)NC(=O)[C@H](C)N(C)C(=O)[C@H](CC(C)C)N(C)C(=O)[C@H](Cc2ccccc2)NC(=O)CN(C)C(=O)C[C@@H](C(=O)N(C)[C@@H](Cc2ccccc2)C(=O)N[C@@H](C)C(=O)N2CCCCC2)NC1=O [DP-595] ([Sar]F[NMeL][NMeA]F[NMeL]LPELD[NMeF]A-Piperidide; lactam N-11) 4.9 ×10⁻⁶ cm/s

Entry to check: CC(C)C[C@@H]1NC(=O)CN(C)C(=O)[C@H](C(C)C)N(C)C(=O)[C@H](C)NC(=O)[C@H]([C@@H](C)O)NC(=O)[C@H](CC(C)C)N(C)C(=O)[C@H](C)N(C)C(=O)[C@H](CC(C)C)N(C)C(=O)[C@H](Cc2ccccc2)NC(=O)CCN(C)C(=O)C[C@@H](C(=O)N2CCCCC2)NC1=O [DP-102] ([NMeβAla]F[NMeL][NMeA][NMeL]TA[NMeV][Sar]LD-Piperidide; lactam N-11) 1.8 ×10⁻⁶ cm/s

CC[C@H](C)[C@H]1C(=O)N[C@H](C(=O)N2CCCCC2)CC(=O)N(C)CCC(=O)N(C)[C@@H](Cc2ccccc2)C(=O)N(C)[C@@H](CC(C)C)C(=O)N[C@@H]([C@@H](C)O)C(=O)N(C)CC(=O)N(C)[C@@H](CC(C)C)C(=O)N[C@@H](COC(C)(C)C)C(=O)N1C [DP-155] ([NMeβAla][NMeF][NMeL]T[Sar][NMeL]S(tBu)[NMeI]D-Piperidide; lactam N-9) , same question. 55 ×10⁻⁶ cm/s

Queued: CC[C@H](C)[C@H]1C(=O)N[C@@H](C)C(=O)N[C@H](C(=O)N2CCCCC2)CC(=O)N[C@H](C)C(=O)N[C@@H](Cc2ccccc2)C(=O)N(C)[C@@H](CC(C)C)C(=O)N[C@@H](CC(C)C)C(=O)N[C@@H](Cc2ccccc2)C(=O)N2CCC[C@H]2C(=O)N[C@@H]([C@@H](C)O)C(=O)N[C@@H](COC(C)(C)C)C(=O)N(C)CC(=O)N1C [DP-88] ([dA]F[NMeL]LFPTS(tBu)[Sar][NMeI]AD-Piperidide; lactam N-12) 13 ×10⁻⁶ cm/s

Now the compound CC[C@H](C)[C@@H]1NC(=O)[C@H](CC(C)C)N(C)C(=O)[C@H](C(C)C)N(C)C(=O)[C@H](C)NC(=O)[C@H](C)N(C)C(=O)[C@H](Cc2ccccc2)NC(=O)[C@H]([C@@H](C)O)NC(=O)[C@H](CC(C)C)N(C)C(=O)[C@H](CC(C)C)N(C)C(=O)[C@H](C)N(C)C(=O)C[C@H](C)NC1=O [DP-770] (cyclo(A[NMeV][NMeL]I[β3hA][NMeA][NMeL][NMeL]TF[NMeA])) 33 ×10⁻⁶ cm/s

Numbers sourced from patent US9409952B2.
